system tested: C-X-C chemokine receptor type 3 (Homo sapiens)
assay summary: Inhibitory concentration against […] expressed in human HEK293 cells using [125I]CXCL10 as radioligand
readout label: IC50 (µM)

I. CCCCCCCCCC(=O)N(CCN(C)C)C(C)c1nc2ccccc2c(=O)n1-c1ccccc1C#N (centres undefined)
II. CCCCCCCCCC(=O)N(CCN(C)C)C(C)c1nc2ccccc2c(=O)n1-c1ccc(F)cc1 (centres undefined)
III. CCCCCCCCCC(=O)N(CCN(C)C)C(C)c1nc2ccccc2c(=O)n1-c1ccc(C#N)cc1 (centres undefined)
IV. CCCCCCCCCC(=O)N(CCN(C)C)C(C)c1nc2ccccc2c(=O)n1-c1ccccc1 (centres undefined)
V. CCCCCCCCCC(=O)N(CCN(C)C)C(C)c1nc2ccccc2c(=O)n1-c1cccc(C#N)c1 (centres undefined)
Lab note: order the above by reported IC50, lowest first, highest last. Give the labels in the order requested.
III, II, V, I, IV
(III: 0.93 µM, II: 3.2 µM, V: 5.8 µM, I: 10 µM, IV: 15 µM)

###

system tested: C-X-C chemokine receptor type 3 (Homo sapiens, UniProt P49682)
Sequence (P49682 whole entry): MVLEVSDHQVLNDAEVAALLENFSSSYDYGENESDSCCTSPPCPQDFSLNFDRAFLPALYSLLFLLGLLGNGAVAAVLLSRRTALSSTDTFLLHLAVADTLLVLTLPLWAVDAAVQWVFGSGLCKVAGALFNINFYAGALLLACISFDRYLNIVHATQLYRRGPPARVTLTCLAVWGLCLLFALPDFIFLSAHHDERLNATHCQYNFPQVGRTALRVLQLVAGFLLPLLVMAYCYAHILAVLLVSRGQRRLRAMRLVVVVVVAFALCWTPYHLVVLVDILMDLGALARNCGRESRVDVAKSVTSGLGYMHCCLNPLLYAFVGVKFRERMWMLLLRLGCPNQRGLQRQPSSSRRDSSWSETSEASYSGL
assay summary: Inhibitory concentration against […] expressed in human HEK293 cells using [125I]CXCL10 as radioligand
readout label: IC50 (µM)

compound="CCCCCCCCCC(=O)N(CCN(C)C)C(C)c1nc2ccccc2c(=O)n1-c1ccc(OC)cc1 (centres undefined)" readout_label=IC50 measurement=3.3
compound="CCCCCCCCCC(=O)N(CCN(C)C)C(C)c1nc2ccccc2c(=O)n1-c1ccc(C)cc1 (centres undefined)" readout_label=IC50 measurement=3.1
